- target_entity: G protein-activated inward rectifier potassium channel 2 (Homo sapiens) + G protein-activated inward rectifier potassium channel 1 (Homo sapiens) (UniProt P48051+P48549)
- Sequence (P48051 whole entry, looked up): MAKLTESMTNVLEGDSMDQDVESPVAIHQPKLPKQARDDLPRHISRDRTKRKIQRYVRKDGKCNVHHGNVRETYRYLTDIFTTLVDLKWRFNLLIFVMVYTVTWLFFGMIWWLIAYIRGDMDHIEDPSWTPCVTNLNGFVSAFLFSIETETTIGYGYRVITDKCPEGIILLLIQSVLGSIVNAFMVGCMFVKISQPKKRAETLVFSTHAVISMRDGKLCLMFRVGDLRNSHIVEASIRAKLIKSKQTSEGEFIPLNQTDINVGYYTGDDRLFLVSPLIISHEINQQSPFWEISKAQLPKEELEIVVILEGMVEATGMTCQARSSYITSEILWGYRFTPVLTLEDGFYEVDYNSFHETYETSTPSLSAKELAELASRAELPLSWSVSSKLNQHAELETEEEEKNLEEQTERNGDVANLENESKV
- Sequence (P48549 whole entry, looked up): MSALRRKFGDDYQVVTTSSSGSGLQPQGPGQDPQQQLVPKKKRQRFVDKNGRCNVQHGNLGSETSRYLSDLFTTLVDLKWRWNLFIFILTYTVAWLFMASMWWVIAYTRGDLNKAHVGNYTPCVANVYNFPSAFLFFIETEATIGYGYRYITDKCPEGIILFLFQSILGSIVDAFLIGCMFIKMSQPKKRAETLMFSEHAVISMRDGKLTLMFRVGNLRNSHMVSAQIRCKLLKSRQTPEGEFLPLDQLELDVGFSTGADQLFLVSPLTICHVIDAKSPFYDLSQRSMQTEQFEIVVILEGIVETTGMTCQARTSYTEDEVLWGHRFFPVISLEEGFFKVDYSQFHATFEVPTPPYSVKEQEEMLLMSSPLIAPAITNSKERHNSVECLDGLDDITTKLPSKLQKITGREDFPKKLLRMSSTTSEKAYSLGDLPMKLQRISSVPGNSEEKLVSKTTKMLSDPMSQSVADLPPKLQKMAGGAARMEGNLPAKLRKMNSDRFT
- assay_remarks: GIRK1/2 thallium flux modulators, retest, confirmation, cell-based, HEK293 rmGlu8/hGIRK1/2, FluoZin-2 (AID 623911)
- condition_label: HEK293 rmGlu8/hGIRK1/2, thallium flux FluoZin-2; actives lie on both sides; glutamate co-added at its EC20 level
Screen size: about 2,100 compounds; about 770 (37%) were called active.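 The calls were made as follows: active = by-eye trace score of 1 for enhancers or -1 for inhibitors, so actives lie on both sides (some results past the limit were not filed as active); inactive = score 0, or 3 fluorescent, or 4 baseline rise.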 The list shows a part of the results.
Classes used: 1 (active), -1 (inactive)

[
  {
    "compound": "Cn1ncc2cc(NC(=S)NC(=O)c3ccccc3)ccc21",
    "class": -1
  },
  {
    "compound": "COc1ccc2[nH]c(C)c(C(=O)CN3CC(C)OC(C)C3)c2c1 (stereo not given)",
    "class": -1
  },
  {
    "compound": "CC(C)(C)C(=O)/C=c1\\[nH]c(=O)/c(=C\\c2ccc(F)cc2)s1",
    "class": -1
  },
  {
    "compound": "O=C(CSc1nc(-c2ccc(F)cc2)cs1)N1CCOCC1",
    "class": -1
  },
  {
    "compound": "COC(=O)C(C)Sc1nc2c(c(=O)n(C)c(=O)n2C)n1Cc1cccc(C)c1 (stereo not given)",
    "class": -1
  },
  {
    "compound": "CCc1ccc2nc(NC(=O)c3cc(C)on3)sc2c1",
    "class": 1
  },
  {
    "compound": "OCCCN=c1cc(-c2ccccc2)oc2ccc(Cl)cc12",
    "class": 1
  },
  {
    "compound": "Cc1ccccc1NC(=S)NC(=O)CCc1ccccc1",
    "class": -1
  },
  {
    "compound": "CCN(CC)S(=O)(=O)c1cccc(-c2n[nH]c(=S)n2/N=C/c2ccc(C(=O)OC)cc2)c1",
    "class": -1
  },
  {
    "compound": "CCCCOC(=O)c1ccc(NC(=S)NC(=O)c2c(Br)c(C)nn2C)cc1",
    "class": -1
  },
  {
    "compound": "CCN1CCN(C(=O)c2ccc3c(=O)n(C4CCCC4)c(=S)[nH]c3c2)CC1",
    "class": -1
  },
  {
    "compound": "CCN(CC)C(=O)CSc1nnc(NC(=O)CCc2ccccc2)s1",
    "class": -1
  },
  {
    "compound": "O=C(Nc1ccc2oc(-c3ccncc3)nc2c1)c1c(F)c(F)c(F)c(F)c1F",
    "class": -1
  },
  {
    "compound": "CN1CCN(c2ccccc2NS(=O)(=O)c2ccc3c(c2)CCN3C(=O)C2CCC2)CC1",
    "class": 1
  },
  {
    "compound": "CCC(=O)Oc1oc(-c2ccccc2)nc1C=Nc1ccccc1OC",
    "class": -1
  },
  {
    "compound": "Cn1c(=O)c2c(nc(-n3ccnc3)n2Cc2ccccc2)n(C)c1=O",
    "class": -1
  },
  {
    "compound": "FC(F)Oc1ccccc1NC(=S)Nc1cccc(Cl)c1Cl",
    "class": 1
  },
  {
    "compound": "CCOC(=O)CSc1nnc(-c2ccccc2OC)o1",
    "class": -1
  },
  {
    "compound": "CCCCn1c(CN(Cc2ccccc2)Cc2ccccc2)nc2c1c(=O)n(C)c(=O)n2C",
    "class": 1
  },
  {
    "compound": "COc1ccc(N2CCN(c3nc4c(c(=O)n(C)c(=O)n4C)n3Cc3ccccc3)CC2)cc1",
    "class": 1
  },
  {
    "compound": "Fc1ccccc1/C=N/NC(=S)Nc1ccc(Cl)cc1Cl",
    "class": -1
  },
  {
    "compound": "O=[N+]([O-])c1ccc(/C=N/NC(=S)Nc2ccccc2F)o1",
    "class": 1
  },
  {
    "compound": "S=C(Nc1ccccc1Oc1ccccc1)Nc1cccc(Cl)c1Cl",
    "class": 1
  },
  {
    "compound": "CCOc1ccccc1Nc1nnc(Cc2ccccc2Cl)c(=O)[nH]1",
    "class": 1
  },
  {
    "compound": "CC(C)(C)C1CCc2[nH]nc(C(=O)O)c2C1 (stereo not given)",
    "class": -1
  },
  {
    "compound": "CCOc1ccccc1NC(=O)Nc1cccc(C(C)=O)c1",
    "class": -1
  },
  {
    "compound": "N=C1/C(=C/c2cccs2)C(=O)N=C2SN=C(SCc3ccccc3)N12",
    "class": 1
  },
  {
    "compound": "O=C(NC(=S)Nn1cnc2c(cnn2-c2ccccc2)c1=O)c1ccc(Oc2ccccc2)cc1",
    "class": -1
  },
  {
    "compound": "COC(=O)c1ccc(NC(=S)NC(=O)c2c(Cl)cnn2C)cc1",
    "class": 1
  },
  {
    "compound": "S=C(Nc1ccccc1)Nc1cc(Cl)ccc1Oc1ccccc1",
    "class": -1
  },
  {
    "compound": "O=C(NCCCn1ccnc1)Nc1ccc(Cl)c(Cl)c1",
    "class": -1
  },
  {
    "compound": "COC(=O)c1cccc(NC(=S)Nc2cccc(Cl)c2Cl)c1",
    "class": -1
  },
  {
    "compound": "CN(C)CCCOc1nc2c(c(=O)n(C)c(=O)n2C)n1C",
    "class": -1
  },
  {
    "compound": "CN(c1ccc(OCC(=O)OCC(=O)Nc2ccccc2F)cc1)S(=O)(=O)c1cccs1",
    "class": -1
  },
  {
    "compound": "CSC1=NSC2=NC(=O)/C(=C/c3coc4ccccc4c3=O)C(=N)N12",
    "class": -1
  },
  {
    "compound": "COc1ccc(Nc2nnc(Cc3ccccc3)c(=O)[nH]2)c(OC)c1",
    "class": 1
  },
  {
    "compound": "Cc1ccc(/C=N/n2c(COc3ccccc3)n[nH]c2=S)s1",
    "class": -1
  },
  {
    "compound": "S=C(Nc1cccc(Cl)c1)Nc1cccc2cnccc12",
    "class": 1
  },
  {
    "compound": "CC(C)(C)NC(=O)C(c1ccncc1)N(C(=O)c1csnn1)c1ccccc1 (stereo not given)",
    "class": -1
  },
  {
    "compound": "COc1ccccc1N=Cc1nc(-c2ccccc2)oc1OC(C)=O",
    "class": -1
  }
]

FYI, the data here is from PubChem BioAssay AID623911.
